- Test System: EIF2AK3 (PERK) catalytic domain (amino acids 536-1116) (Homo sapiens)
- Construct: EIF2AK3 (PERK) catalytic domain (amino acids 536-1116)
- Sequence (Q9NZJ5 536-1116): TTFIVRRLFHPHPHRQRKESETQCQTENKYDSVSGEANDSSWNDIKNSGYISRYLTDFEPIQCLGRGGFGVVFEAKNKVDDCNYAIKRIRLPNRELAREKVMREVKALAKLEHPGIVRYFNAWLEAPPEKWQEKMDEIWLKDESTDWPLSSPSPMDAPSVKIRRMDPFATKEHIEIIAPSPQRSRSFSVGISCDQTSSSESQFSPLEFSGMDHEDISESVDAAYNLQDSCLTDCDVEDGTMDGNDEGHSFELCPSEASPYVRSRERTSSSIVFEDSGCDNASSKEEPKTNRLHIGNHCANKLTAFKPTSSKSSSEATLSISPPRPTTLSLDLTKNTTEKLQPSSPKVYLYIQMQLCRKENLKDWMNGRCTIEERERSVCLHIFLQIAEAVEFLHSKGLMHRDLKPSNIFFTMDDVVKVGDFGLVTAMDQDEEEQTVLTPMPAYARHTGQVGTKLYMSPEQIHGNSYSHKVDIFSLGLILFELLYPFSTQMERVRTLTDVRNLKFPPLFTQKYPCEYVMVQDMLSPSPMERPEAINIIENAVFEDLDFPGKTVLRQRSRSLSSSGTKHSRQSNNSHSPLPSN
- Assay Summary: PERK in vitro activity assay (isolated), TR-FRET kinase assay
- Format: biochemical
- Settings: isolated PERK enzyme, 1.5 μM ATP; read-out: Biochemical IC50
Measured Attribute: IC50

Inquiry: Provide value of IC50 for this record tested with EIF2AK3 (PERK) catalytic domain (amino acids 536-1116) (Homo sapiens): Cc1nc(N)c2c(-c3cnc(NC(=O)C(O)c4cccc(F)c4)cc3C)cn(C)c2n1 (centres unmarked) [Example 134]
Reply text: 1 to 25 nM

Inquiry: Next entry: Cc1cc(NC(=O)Cc2ccc(Cl)cc2)ccc1-c1cn(C)c2ncnc(N)c12
Reply text: 1 to 25 nM

Inquiry: Next entry: CCc1ccccc1CC(=O)Nc1ccc(-c2cn(C)c3ncnc(N)c23)c(C)c1
Reply text: 1 to 25 nM

Inquiry: Next entry: Cc1nc(N)c2c(-c3ccc(NC(=O)C(O)c4cccc(F)c4)c(F)c3C)cn(C)c2n1 (centres unmarked) [Example 13]
Reply text: 51 to 100 nM

Inquiry: Next entry: CCc1nc(N)c2c(-c3ccc(NC(=O)C(O)c4cccc(F)c4)cc3C)cn(C)c2n1 (centres unmarked)
Reply text: 101 to 250 nM

Continuing:
Inquiry: Provide value of IC50 for this record tested with EIF2AK3 (PERK) catalytic domain (amino acids 536-1116) (Homo sapiens): Cc1cc(NC(=O)C(O)c2cccc(F)c2)c(F)cc1-c1cn(C)c2ncnc(N)c12 (centres unmarked) [Example 119]
Reply text: 1 to 25 nM

Inquiry: Next entry: Cc1nc(N)c2c(-c3ccc(NC(=O)C(O)c4cc(F)cc(F)c4)cc3F)cn(C)c2n1 (centres unmarked) [Example 84]
Reply text: 51 to 100 nM

Inquiry: Next entry: Cc1cc(NC(=O)Cc2cccc(F)c2)ccc1-c1cn(C)c2ncnc(N)c12
Reply text: 26 to 50 nM

Inquiry: Next entry: Cc1cc(NC(=O)C(O)c2ccccc2C)ccc1-c1cn(C)c2ncnc(N)c12 (centres unmarked)
Reply text: 1 to 25 nM

Inquiry: Next entry: Cc1cc(NC(=O)C(O)c2cccc(F)c2)ccc1-c1cn(C)c2ncnc(N)c12 (centres unmarked) [Example 9]
Reply text: 1 to 25 nM
